- Test system: U-251
- assay-text: NCI tumour cell line growth inhibition, 48 h
The source made the active and inactive calls. Rule as the data show it: active = GI50 up to about 1.1 µM and inactive = higher.
// reported GI50 for each item listed

compound	GI50
Cc1nnc(N2C(=O)C(=Cc3ccc(Cl)cc3)N=C2c2ccc(Cl)cc2)nc1/C=C\c1ccc(N(C)C)cc1	> 100 µM (inactive)
Cc1cc(C2(c3cc(C)c(O)c(C(=O)O)c3)OS(=O)(=O)c3ccccc32)cc(C(=O)O)c1O	> 100 µM (inactive)
CC(NC(=O)Cc1ccc(OP(=O)(OCc2ccc([N+](=O)[O-])o2)N(C)CCCCCl)cc1)c1ccc(OCC2CCCCC2)c(C(N)=O)c1 (centres undefined)	2.14 µM (inactive)
COc1ccc2c(cnc3c4cc(OC)c(OC)cc4ccc23)c1	> 100 µM (inactive)
O=P(O)(Cc1ccccc1)OCC1(O)OCC(O)C(O)C1O (centres undefined)	> 10 µM (inactive)
CC(C)(C)OC(=O)NNC(=O)C1Cc2ccccc2OC1=O (centres undefined)	> 100 µM (inactive)
O=C(Nc1nc2ncn(CCOC(=O)c3ccccc3)c2c(=O)[nH]1)c1ccccc1	7.24 µM (inactive)
O=[N+]([O-])c1ccc2nc3c(nc2c1)-c1c2ccccc2cc2cccc-3c12	5.9 µM (inactive)
CC(C)c1ccccc1SCc1cc(=O)cc(CSc2ccccc2C(C)C)o1	22 µM (inactive)

----------
// reported GI50 for each item listed
- Tested on: MDA-MB-435
- assay-text: NCI tumour cell line growth inhibition, 48 h
Calls of active or inactive are those of the source. Rule as the data show it: active = GI50 up to about 1.1 µM and inactive = higher.

compound	GI50
COc1nc2ccc(CNc3ccc(C(=O)O)cc3)cc2nc1OC	> 10 µM (inactive)
O=C(O)c1cc(-c2ccc(-c3ccccc3)cc2)nc2cc3ccccc3cc12	72.9 µM (inactive)
COC(=O)NN(C(=O)OC)c1c(-c2ccccc2)nc(SC)n1N	> 100 µM (inactive)
COC(=O)c1cc(C(=O)OC)cc(-c2ccc3c(c2)-c2nc4c(c(-c5ccc(OC)cc5)c2CC3)CCc2ccc(-c3cc(C(=O)OC)cc(C(=O)OC)c3)cc2-4)c1	> 100 µM (inactive)
O=c1[nH]nc(-c2ccccc2)n1/N=C/c1ccc([N+](=O)[O-])cc1	> 100 µM (inactive)
C=C(C)[C@@H]1CC[C@]2(C(=O)O)CC[C@]3(C)[C@H](CC[C@@H]4[C@@]5(C)CC[C@H](C(=O)/C=C/c6ccc(O)cc6)C(C)(C)[C@@H]5CC[C@]43C)[C@@H]12	7.67 µM (inactive)
O=C1CN2CCN(CC2)CC(=O)Nc2ccc(cc2)S(=O)(=O)c2ccc(cc2)NC(=O)CN2CCN(CC2)CC(=O)Nc2ccc(cc2)S(=O)(=O)c2ccc(cc2)N1	35.2 µM (inactive)
Cc1cccc(Nc2cn(CCOc3ccccc3)c(=O)[nH]c2=O)c1	29.5 µM (inactive)
Cc1ccc(S(=O)(=O)n2c3ccc(Br)cc3c3nc4ccccc4nc32)cc1	> 100 µM (inactive)
COC(=O)c1cc(C)ccc1CC(Cc1ccccc1C)C(=O)OC (centres undefined)	18.1 µM (inactive)
O=C(c1ccccc1)n1cc(-c2ccccc2)c2c(=O)nc[nH]c21	> 100 µM (inactive)
OCCN(CO)CO	> 100 µM (inactive)
OCC1OC(NC(=S)NCCC(F)(F)C(F)(F)C(F)(F)C(F)(F)C(F)(F)C(F)(F)F)C(O)C(O)C1O (centres undefined)	58.6 µM (inactive)
CN(C)CCn1c(=O)c2ccc3c4c(nn3CCN(C)C)c3cc([N+](=O)[O-])ccc3n(c1=O)c24	0.0675 µM (active)
CCOC(=O)N1CCN(c2c(N)nc(C)nc2O)CC1	> 100 µM (inactive)
CC(C)(C)OC(=O)NNC(=O)C1Cc2ccccc2OC1=O (centres undefined)	> 100 µM (inactive)
CN(C)Cc1cc(/N=N/c2ccccc2Cl)ccc1O	17.7 µM (inactive)
C=C1C(=O)OC2C1CC(OC(C)=O)/C(C)=C/CCC1(C)OC21 (centres undefined)	> 100 µM (inactive)
Clc1ccc(Cl)c(Nc2ccnc(SCc3ccccc3)n2)c1	> 100 µM (inactive)

----------
- System: HOP-62
- assay-text: NCI tumour cell line growth inhibition, 48 h
Activity calls are given as the source filed them. Cut-off read from the data, not from the text of the source: active = GI50 up to about 1.1 µM and inactive = higher.
Labels: Yes (active), No (inactive)

compound	class-name
CSC1=C(C)C(/C=N/Nc2ccc([N+](=O)[O-])cc2)=C(C)N(c2ccccc2)S1(=O)=O	No
O=C(Cc1nc2ccccc2[nH]c1=O)c1c[nH]c2ccccc12	No
c1ccc(C(/C(=N/c2ccc(Cc3ccc(/N=C(\C(c4ccccc4)c4ccccc4)N4CC4)cc3)cc2)N2CC2)c2ccccc2)cc1	No
O=c1[nH]nc(-c2ccccc2)c2[nH]c3c(c12)Cc1ccccc1-3	No
N[C@H]1CCN(c2c(F)cc3c(=O)c(C(=O)O)cn4c3c2Oc2c-4ccc3c2ccc2ccccc23)C1	Yes
COc1nc2ccc(CNc3ccc(C(=O)O)cc3)cc2nc1OC	No
COc1ccc(OC)c2sc(N3C(=O)/C(=C/c4ccccc4S)N=C3c3ccccc3)nc12	No
CC(=O)/C=C1/c2ccccc2N(C(C)=O)C1O (stereo not given)	No
Cc1ccc(S(=O)(=O)Nc2ccccc2C=O)cc1	No
COc1cc(OC)c2c(c1-c1ccc(C)cc1)CC(C)N(Cc1ccccc1)[C@H]2C (stereo not given in full)	No

----------
- Tested on: OVCAR-5
- assay-text: NCI tumour cell line growth inhibition, 48 h
Active and inactive are the calls of the source. No stated cut-off is given here; in the data, active = GI50 up to about 1.1 µM and inactive = higher.
Labels: 1 for active, 0 for inactive

compound	class-name
COc1ccc(C(C#N)NNC(=O)Cc2ccccc2)cc1OC (stereo unspecified)	0
Clc1ccc(Cl)c(Nc2ccnc(SCc3ccccc3)n2)c1	0
O=[N+]([O-])C(=C1Nc2ccccc2N1)/C(Cl)=C(/Cl)N1CCOCC1	0
Cc1ccc(S(=O)(=O)N2CCN3CCN(CCN(C)CCN4CCN(CC4)CCN(S(=O)(=O)c4ccc(C)cc4)CCN(S(=O)(=O)c4ccc(C)cc4)CCN(S(=O)(=O)c4ccc(C)cc4)CCN(S(=O)(=O)c4ccc(C)cc4)CCN4CCN(CCN(C)CCN5CCN(CC5)CCN(S(=O)(=O)c5ccc(C)cc5)CCN(S(=O)(=O)c5ccc(C)cc5)CCN(S(=O)(=O)c5ccc(C)cc5)CC2)CC4)CC3)cc1	0
NC(=O)c1cc(N2CC2)c([N+](=O)[O-])cc1[N+](=O)[O-]	0
Cc1ccc(S(=O)(=O)c2ccc(NC(=O)SCCC(=O)O)cc2)cc1	0
CC(C)(C)c1cc(Cc2ccc([N+](C)(C)C)cc2)c(O)c(C(C)(C)C)c1	0
COc1ccc(-c2nc(N)c3ncn(C4OC(CO)C(O)C4O)c3n2)cc1 (stereo unspecified)	0
COc1ccc2nc3ccc(OC)cc3c([S+]([O-])CCCl)c2c1 (stereo unspecified)	0
COc1ccc(/C=C2\CCC(CNc3ccc(S(N)(=O)=O)cc3)C2=O)cc1 (stereo unspecified)	0
Cc1ccc(O)c(-c2cc(-c3cccc(Br)c3)on2)c1	0
COc1ccc(CC(=O)c2cc(OC)c(OC)cc2C)cc1OC	0
COc1cc(C(=O)/C=C/c2ccc(OCCSCCCCCCCCCCSCCOc3ccc(/C=C/C(=O)c4cc(OC)c(OC)c(OC)c4)cc3)cc2)cc(OC)c1OC	0
COC(=O)CCC(NC(=S)N/N=C(\C)c1ccc[nH]1)C(=O)OC (stereo unspecified)	0
COc1cc2c(/C=C3/C(=O)Nc4ccccc43)c(Cl)[nH]c2cc1C	1
CCN(CC)CCCNc1ncc(C)c2[nH]c3ccncc3c12	0
COc1ccc(/C=C/C(=O)CC(=O)/C=C/c2ccc(OC)cc2)cc1	0
[Zn+2][N+]12CCN3CCN4CCN(CC1)[PH]432 (stereo unspecified)	0
CC(NC(=O)C(Cc1ccc(OC(=O)c2ccccc2)cc1)NC(=O)OC(C)(C)C)C(=O)NCC(=O)NC(Cc1ccccc1)C(=O)NN (stereo unspecified)	0
CC(=O)N1CC[N+](C)(CCCCN2c3ccccc3Sc3cc(N=[N+]=[N-])ccc32)CC1	0
COC1=C(Br)[C@H](O)[C@@]2(C=C1Br)CC(C(=O)NCCCCCNC(=N)N)=NO2	0
CC(=O)Nc1ccc(-c2nnc(SCC(=O)Nc3ccc(C)cc3)o2)cc1	0
Cc1ccc2[nH]c3[nH]c(=S)[nH]c(=O)c3c2c1	0
O=C(Nc1ccc2ncccc2c1)Nc1ccc2ncccc2c1	0
O=C1C=CC(=O)N1n1c(Cc2ccccc2)n[nH]c1=O	0
O=P1(c2ccccc2)C(c2ccccc2)=CC=C1c1ccccc1	0

----------
// reported GI50 for each item listed
- System: NCI-H460
- assay-text: NCI tumour cell line growth inhibition, 48 h
Activity calls are given as the source filed them. Cut-off read from the data, not from the text of the source: active = GI50 up to about 1.1 µM and inactive = higher. *1 amine or outer side, *2 acyl side, *3 side chain or, on linkers, in order; H or OH if unused. Where a SMILES comes first, the peptide text is derived from it. Bridges are numbered along the chain shown (N, C = ends). [ ]: non-standard residue; d: D form. ξ: configuration not given here. X10 = CCC(C)C(N[*:1])C(O)CC(=O)O[C@H](C(=O)C(C)C(=O)[*:2])C(C)C; NMeY = CN[C@@H](Cc1ccc(O)cc1)C(=O)O; ξNMeL = CNC(CC(C)C)C(=O)O; ξT = CC(O)C(N)C(=O)O

compound	GI50
c1ccc2c(c1)sc1c3cnccc3ccc21	24.9 µM (inactive)
CCOC(=O)N1CCN(c2c(N)nc(C)nc2O)CC1	> 100 µM (inactive)
CC(=O)C1=C(C)Cn2c(=O)c3ccccc3c(=O)n2C1	> 100 µM (inactive)
COc1ccc(OC)c(N2C(=O)CSC2c2cc(OC)c(OC)c(OC)c2)c1 (centres undefined)	> 100 µM (inactive)
OC(c1ccccc1)c1c(-c2ccccc2)[nH]c(-c2ccccc2)c1C(O)c1ccccc1 (centres undefined)	3.06 µM (inactive)
O=S(=O)(Nc1nc2ccccc2nc1N1CCCCCC1)c1ccccc1	15.7 µM (inactive)
CCC(C)C1NC(=O)C(NC(=O)C(CC(C)C)N(C)C(=O)[C@@H]2CCCN2)C(C)OC(=O)[C@H](Cc2ccc(OC)cc2)N(C)C(=O)[C@@H]2CCCN2C(=O)[C@H](CC(C)C)NC(=O)C(C)C(=O)[C@H](C(C)C)OC(=O)CC1O (some centres undefined) (H-P[ξNMeL][ξT][X10]LP[NMeY](Me); ester 3-C)	0.000249 µM (active)
O=C1NN=C(c2ccc(Cl)cc2)CC1C1C(=O)N(c2ccccc2)N=C1c1ccccc1 (centres undefined)	28.1 µM (inactive)
O=NN(CCCl)C(=O)N[C@H]1CCCC[C@@H]1Cl	29.4 µM (inactive)
